- test.details: toxicity in U2OS HRE-luc cells, iron medium, dose response, cytotoxicity control for HIF pathway activator project, iron-supplemented medium, dry powder (AID 504331)
- measurement.parameters: U2OS HRE-luc cells viability, CellTiter-Glo luminescence; at 38 µM (top of the series)
activity change, negative = cytotoxicity: recorded values

{"smiles.string": "O=C(Nc1ncc(-c2ccccc2)o1)c1cc(-c2ccccc2)on1", "reading.unit": "%", "activity change, negative = cytotoxicity": 1.13}
{"smiles.string": "O=C(Nc1nc(-c2ccccc2)cs1)c1cc(-c2ccccc2)on1", "reading.unit": "%", "activity change, negative = cytotoxicity": 8.59}
{"smiles.string": "O=C(Nc1ccc2ccccc2n1)c1cc(-c2ccccc2)on1", "reading.unit": "%", "activity change, negative = cytotoxicity": 13}
{"smiles.string": "O=C(c1cc(-c2ccccc2)on1)N1CCC(CO)CC1", "reading.unit": "%", "activity change, negative = cytotoxicity": 7.47}
{"smiles.string": "c1ccc(-c2nnc(-c3ccccn3)nc2NCC2CC2)cc1", "reading.unit": "%", "activity change, negative = cytotoxicity": 4.24}
{"smiles.string": "Cn1c(NC(=O)c2cc(-c3ccccc3)on2)nc2ccccc21", "reading.unit": "%", "activity change, negative = cytotoxicity": 15.8}
{"smiles.string": "c1ccc(-c2nnc(-c3ccccn3)nc2NCC2CCOCC2)cc1", "reading.unit": "%", "activity change, negative = cytotoxicity": 5.99}
{"smiles.string": "c1ccc(-c2nnc(-c3ccccn3)nc2NCc2cccnc2)cc1", "reading.unit": "%", "activity change, negative = cytotoxicity": 17}
{"smiles.string": "O=C(Nc1cnc2ccccc2c1)c1cc(-c2ccccc2)on1", "reading.unit": "%", "activity change, negative = cytotoxicity": -0.953}
{"smiles.string": "O=C(NCCCn1ccnc1)c1cc(-c2ccccc2)on1", "reading.unit": "%", "activity change, negative = cytotoxicity": -7.58}
{"smiles.string": "CC(C)(C)CCNc1nc(-c2ccccn2)nnc1-c1ccccc1", "reading.unit": "%", "activity change, negative = cytotoxicity": -21.1}

----------
- test.details: toxicity in U2OS HRE-luc cells, iron medium, dose response, cytotoxicity control for HIF pathway activator project, iron-supplemented medium, dry powder (AID 504331)
- measurement.parameters: U2OS HRE-luc cells viability, CellTiter-Glo luminescence; at 38 µM (top of the series)
activity change, negative = cytotoxicity: recorded values

{"compound": "O=C(Nc1nc2ccccc2s1)c1cc(-c2ccccc2)on1", "activity change, negative = cytotoxicity (%)": 11.3}
{"compound": "Cn1c(-c2ccccc2)cnc1NC(=O)c1cc(-c2ccccc2)on1", "activity change, negative = cytotoxicity (%)": -7.51}
{"compound": "O=C(NC1Cc2ccccc2C1)c1cc(-c2ccccc2)on1", "activity change, negative = cytotoxicity (%)": -12.2}
{"compound": "O=C(NCCN1CCCCC1)c1cc(-c2ccccc2)on1", "activity change, negative = cytotoxicity (%)": 14}
{"compound": "Cc1cccc(CNc2nc(-c3ccccn3)nnc2-c2ccccc2)c1", "activity change, negative = cytotoxicity (%)": -8.02}
{"compound": "CN(C)CCNC(=O)c1cc(-c2ccccc2)on1", "activity change, negative = cytotoxicity (%)": 11}
{"compound": "O=C(c1cc(-c2ccccc2)on1)N1CCC(N2CCOCC2)CC1", "activity change, negative = cytotoxicity (%)": 5.61}
{"compound": "Oc1ccc(CN2CCC(Cc3ccccc3)CC2)c2cccnc12", "activity change, negative = cytotoxicity (%)": -1.73}
{"compound": "O=C(Nc1cn2ccccc2n1)c1cc(-c2ccccc2)on1", "activity change, negative = cytotoxicity (%)": 15.5}
{"compound": "CN1CCN(c2nc(-c3ccccn3)nnc2-c2ccccc2)CC1", "activity change, negative = cytotoxicity (%)": -22.1}
{"compound": "O=C(c1cc(-c2ccccc2)on1)N1CCC(N2CCCC2)CC1", "activity change, negative = cytotoxicity (%)": -1.03}
{"compound": "Cc1cccc(NC(=O)c2cc(-c3ccccc3)on2)n1", "activity change, negative = cytotoxicity (%)": -3.67}
{"compound": "c1ccc(-c2cccc(CNc3nc(-c4ccccn4)nnc3-c3ccccc3)c2)cc1", "activity change, negative = cytotoxicity (%)": -2.48}
{"compound": "c1ccc(-c2nnc(-c3ccccn3)nc2NCCCN2CCOCC2)cc1", "activity change, negative = cytotoxicity (%)": 9.59}
{"compound": "O=C(NCCCN1CCOCC1)c1cc(-c2ccccc2)on1", "activity change, negative = cytotoxicity (%)": 11}
{"compound": "Cc1ccccc1CNc1nc(-c2ccccn2)nnc1-c1ccccc1", "activity change, negative = cytotoxicity (%)": -20}
{"compound": "C=CCNc1nc(-c2ccccn2)nnc1-c1ccccc1", "activity change, negative = cytotoxicity (%)": 6.06}
{"compound": "O=C(Nc1ncc2ccccc2n1)c1cc(-c2ccccc2)on1", "activity change, negative = cytotoxicity (%)": -12.2}
{"compound": "CN1CCN(C(=O)c2cc(-c3ccccc3)on2)CC1", "activity change, negative = cytotoxicity (%)": 2.12}
{"compound": "CN(C)c1nc(-c2ccccn2)nnc1-c1ccccc1", "activity change, negative = cytotoxicity (%)": 13.9}
{"compound": "Cc1ccc(NC(=O)c2cc(-c3ccccc3)on2)cn1", "activity change, negative = cytotoxicity (%)": -4.1}
{"compound": "O=C(NCC1CC1)c1cc(-c2ccccc2)on1", "activity change, negative = cytotoxicity (%)": 20.9}
{"compound": "O=C(NCCCCO)c1cc(-c2ccccc2)on1", "activity change, negative = cytotoxicity (%)": 1.09}
{"compound": "c1ccc(-c2nnc(-c3ccccn3)nc2N2CCC(C3CCCCC3)C2)cc1 (stereo not given)", "activity change, negative = cytotoxicity (%)": 0.423}
{"compound": "O=C(NCCN1CCOCC1)c1cc(-c2ccccc2)on1", "activity change, negative = cytotoxicity (%)": 12.9}

----------
- test.details: toxicity in U2OS HRE-luc cells, iron medium, dose response, cytotoxicity control for HIF pathway activator project, iron-supplemented medium, dry powder (AID 504331)
- measurement.parameters: U2OS HRE-luc cells viability, CellTiter-Glo luminescence; at 38 µM (top of the series)
activity change, negative = cytotoxicity: recorded values

{"smiles.string": "CCCCNC(=O)c1cc(-c2ccccc2)on1", "reading.unit": "%", "activity change, negative = cytotoxicity": 5.24}
{"smiles.string": "O=C(c1cc(-c2ccccc2)on1)N1CCc2cccnc21", "reading.unit": "%", "activity change, negative = cytotoxicity": -7.82}
{"smiles.string": "c1ccc(-c2nnc(-c3ccccn3)nc2N2CCN(c3ccncc3)CC2)cc1", "reading.unit": "%", "activity change, negative = cytotoxicity": 7.73}
{"smiles.string": "c1ccc(CNc2nc(-c3ccccn3)nnc2-c2ccccc2)cc1", "reading.unit": "%", "activity change, negative = cytotoxicity": 0.83}
{"smiles.string": "c1ccc(-c2nnc(-c3ccccn3)nc2NCCN2CCOCC2)cc1", "reading.unit": "%", "activity change, negative = cytotoxicity": -5.86}
{"smiles.string": "c1ccc(-c2nnc(-c3ccccn3)nc2N2CCC(N3CCOCC3)CC2)cc1", "reading.unit": "%", "activity change, negative = cytotoxicity": 5.36}
{"smiles.string": "CC(C)(C)OC(=O)N1CCN(Cc2ccc(O)c3ncccc23)CC1", "reading.unit": "%", "activity change, negative = cytotoxicity": 8.63}
{"smiles.string": "c1ccc(-c2nnc(-c3ccccn3)nc2NCCc2ccccn2)cc1", "reading.unit": "%", "activity change, negative = cytotoxicity": -1.62}
{"smiles.string": "Cc1ccccc1CNC(=O)c1cc(-c2ccccc2)on1", "reading.unit": "%", "activity change, negative = cytotoxicity": 4.84}
{"smiles.string": "CC(C)(C)CCNC(=O)c1cc(-c2ccccc2)on1", "reading.unit": "%", "activity change, negative = cytotoxicity": -4}
{"smiles.string": "Cc1ccc(CNC(=O)c2cc(-c3ccccc3)on2)cc1", "reading.unit": "%", "activity change, negative = cytotoxicity": -12.1}
{"smiles.string": "O=C(Nc1nnc(-c2ccccc2)s1)c1cc(-c2ccccc2)on1", "reading.unit": "%", "activity change, negative = cytotoxicity": 13.2}
{"smiles.string": "OCCCNc1nc(-c2ccccn2)nnc1-c1ccccc1", "reading.unit": "%", "activity change, negative = cytotoxicity": 12.8}
{"smiles.string": "N#CC1(c2ccccc2)CCN(Cc2ccc(O)c3ncccc23)CC1", "reading.unit": "%", "activity change, negative = cytotoxicity": 10.7}
{"smiles.string": "O=C(NCc1ccccc1)c1cc(-c2ccccc2)on1", "reading.unit": "%", "activity change, negative = cytotoxicity": 6.28}
{"smiles.string": "O=C(NCC1CCCCC1)c1cc(-c2ccccc2)on1", "reading.unit": "%", "activity change, negative = cytotoxicity": -8.74}
{"smiles.string": "O=C(NCCCO)c1cc(-c2ccccc2)on1", "reading.unit": "%", "activity change, negative = cytotoxicity": -4.34}
{"smiles.string": "c1ccc(-c2nnc(Nc3nc(-c4ccccn4)nnc3-c3ccccc3)s2)cc1", "reading.unit": "%", "activity change, negative = cytotoxicity": 5.32}
{"smiles.string": "Cc1cccc(CNC(=O)c2cc(-c3ccccc3)on2)c1", "reading.unit": "%", "activity change, negative = cytotoxicity": -4.42}
